- Test system: SRY-box transcription factor 17 (SOX17) Protein Expression, SOX17 (gene 64321)
- PROCEDURE_DETAILS: CCTE_Deisenroth_DEVTOX-GLR_Ecto_SOX17: CCTE's DevTox GLR-Ecto Assay Evaluation of SRY-box transcription factor 17 (SOX17) Protein Expression, Deisenroth Lab
Inconclusive results are not listed. Active and inactive are the calls of the source. The calls were made as follows: active = hit-call score of the fitted dose curve at least 0.9, where 1 is the maximum; inconclusive = response in the unintended direction; inactive = score below 0.9.
Returns: one label drawn from 1 (yes) (active), 0 (no) (inactive)

Answered cases to consult:
> print(dat)
                                   molecule                           target.of.assay  assigned.class
1  CC1=C(/C=C/C(C)=C/C=C/C(C)=C\C(=O)O)C(C)(C)CCC1  SRY-box transcription factor 17 (SOX17) Protein Expression, SOX17 (gene 64321)         1 (yes)
2  CC1=C(/C=C/C(C)=C/C=C/C(C)=C/C(=O)O)C(C)(C)CCC1  SRY-box transcription factor 17 (SOX17) Protein Expression, SOX17 (gene 64321)         1 (yes)
3  CN(Cc1cnc2nc(N)nc(N)c2n1)c1ccc(C(=O)N[C@@H](CCC(=O)O)C(=O)O)cc1  SRY-box transcription factor 17 (SOX17) Protein Expression, SOX17 (gene 64321)          0 (no)
4  O=C1CCC(N2C(=O)c3ccccc3C2=O)C(=O)N1 (configuration not stated)  SRY-box transcription factor 17 (SOX17) Protein Expression, SOX17 (gene 64321)          0 (no)
5                           CCCC(CCC)C(=O)O  SRY-box transcription factor 17 (SOX17) Protein Expression, SOX17 (gene 64321)          0 (no)

Prompt: Which result was noted for this molecule in the test: `O=C1NC(=O)C(c2ccccc2)(c2ccccc2)N1`
Response: 0 (no)

Prompt: Which result was noted for this molecule in the test: `CC(C)(c1ccc(O)cc1)c1ccc(O)cc1`
Response: 0 (no)

The measurements presented in this section are drawn from PubChem BioAssay AID2284423.
